Just for reference, ChEMBL document CHEMBL4715794 is where these values come from.

assay: Stability in presence of snake venom phosphodiesterase assessed as parent compound remaining level at 7 ug incubated for 2 hrs by HPLC analysis; format: ADME; conditions: in vitro, at 7 µg
Attribute measured: Stabilty

{"columns": ["Compound", "Result"],
 "data": [
  ["Nc1ncnc2c1ncn2[C@H]1C[C@@H]2OP(=O)(S)OC[C@H]3O[C@@H](n4cnc5c(O)ncnc54)[C@H](F)[C@@H]3OP(=O)(S)OC[C@H]2O1 (stereo partly drawn)", "Stable"],
  ["Nc1ncnc2c1ncn2[C@H]1C[C@@H]2OP(=O)(O)OC[C@H]3O[C@@H](n4cnc5c(O)ncnc54)C[C@@H]3OP(=O)(O)OC[C@H]2O1", "Stable"],
  ["Nc1ncnc2c1ncn2[C@@H]1O[C@@H]2COP(=O)(S)O[C@H]3[C@@H](O)[C@H](n4cnc5c(O)ncnc54)O[C@@H]3COP(=O)(S)O[C@H]2[C@H]1O (stereo partly drawn)", "Stable"]
]}
